Source: ChEMBL document CHEMBL1201862

I'd be grateful if you could share measured GI50 for these entries.
tested on: T47D; test: NCI tumour cell line growth inhibition, 48 h
Active and inactive are the calls of the source. Cut-off read from the data, not from the text of the source: active = GI50 up to about 1.1 µM and inactive = higher. Square brackets hold non-standard residues; d marks the D form. Peptide text beside a SMILES is read from it. * marks the point of attachment. ξ: configuration not given here. ξW = NC(Cc1c[nH]c2ccccc12)C(=O)O; X29 = O=C(O)[C@H]1CCC[C@H]1N*; ξF = NC(Cc1ccccc1)C(=O)O; Boc = CC(C)(C)OC(=O)*; ξK = NCCCCC(N)C(=O)O; ξT = CC(O)C(N)C(=O)O; tBu = CC(C)(C)*

These solved cases illustrate the format of a correct answer.
Recorded GI50 (compound CCOC(=O)c1c(SCCN2CCCCC2)n(-c2ccccc2)c(=S)n(-c2ccccc2)c1=O ): 4.6 µM (inactive)

The compound identified as CC(C)(NO)/C(=N\O)c1ccco1 registered its GI50 at > 100 µM (inactive)

GI50 reported for this compound OC(c1ccc(-c2ccccc2)cc1)(c1ccc(-c2ccccc2)cc1)c1ccc(-c2ccccc2)cc1 : > 100 µM (inactive)

The measured GI50 associated with CC(OC(C)(C)C)C(NC(=O)C(CCCCNC(=O)OC(C)(C)C)NC(=O)C(Cc1c[nH]c2ccccc12)NC(=O)C(N)Cc1ccccc1)C(=O)NC(Cc1ccccc1)C(=O)N[C@@H]1CCC[C@@H]1C(=O)O (some centres not stated) (H-[ξF][ξW][ξK](Boc)[ξT](tBu)[ξF]-X29) reads 33.8 µM (inactive)

Entry COC(=O)C(=O)C(C(=O)C(N)=O)c1nc2ccc(C(=O)c3ccccc3)cc2nc1O (configuration not stated) , GI50 reported as 70.5 µM (inactive)

Provide GI50 for all items below, preserving their order.
1. O=C(c1cccnc1)N1N=C(c2ccccc2)CC1(O)c1cc(F)c(Cl)cc1Cl (configuration not stated)
2. O=c1ccc2nc3ccc(O)cc3oc-2c1
3. CCOc1cc2c(cc1O)CC[C@@H]1[C@@H]2CC[C@]2(C)C(OS(=O)OC3CC[C@@H]4[C@H]5CCc6cc(O)c(OCC)cc6[C@@H]5CC[C@@]34C)CC[C@@H]12 (some centres not stated)
4. O=C(Nc1ccc(Cl)cc1)c1cc(S(=O)(=O)Nc2nnc3c(Cl)cc(C(F)(F)F)cn23)c(S)cc1Cl
5. CC(Oc1ccccc1Cl)C(=O)NN1C(=O)CC(=O)NC1=S (configuration not stated)
6. C[C@H]1CC[C@@]2(NC1)O[C@H]1C[C@H]3[C@@H]4CC[C@H]5C[C@@H](O)CC[C@]5(C)[C@H]4CC[C@]3(C)[C@H]1[C@@H]2C
7. Cc1ccc(C(=O)C(Cl)C(Cl)c2ccc(C)cc2)cc1 (configuration not stated)
8. Cc1nc2cc(C(F)(F)F)ccc2[nH]c1=O

["12.3 µM (inactive)", "> 100 µM (inactive)", "5.66 µM (inactive)", "> 100 µM (inactive)", "36.6 µM (inactive)", "> 100 µM (inactive)", "2.08 µM (inactive)", "45.5 µM (inactive)"]

Give measured GI50 for every item shown.
1. C[C@H]1C[C@H]2[C@@H]3C(C)(C)O[C@]4(O)C(=O)[C@]5(O)[C@@H](C)CC[C@H]1[C@]25C(=O)[C@]34C
2. CC(=O)C(CN1CCOCC1)C(c1ccccc1)c1c(O)c2ccccc2oc1=O (configuration not stated)
3. COc1ccc2c(c1)c1c3c(ccc4ncn2c43)N(CCN(C)C)CCN=1
4. CCCc1cn2c(/C=N/NC(=N)N)c(-c3ccc([N+](=O)[O-])cc3)nc2s1

["25.2 µM (inactive)", "> 100 µM (inactive)", "1.52 µM (inactive)", "1.67 µM (inactive)"]

====

system: UACC-62; test: NCI tumour cell line growth inhibition, 48 h
Active and inactive are the calls of the source. Rule as the data show it: active = GI50 up to about 1.1 µM and inactive = higher.
The reply should name one outcome from t for active, f for inactive

GET /call?item= CC12CC3OC(=O)C1COC14OC5(C2C1=O)C(O)(CCC1C4CC2OC24CC=CC(=O)C14C)C(=O)OC35C (centres undefined) returns the recorded outcome of this test.
f

Alright, here's another compound for you.
For this compound, state the assay outcome: C[n+]1ccc2/c(=C\C#N)c3ccccc3n21
f

====

system: M14; experiment: NCI tumour cell line growth inhibition, 48 h
Calls of active or inactive are those of the source. No stated cut-off is given here; in the data, active = GI50 up to about 1.1 µM and inactive = higher.
ENDPOINT: GI50

For reference, reported GI50 for COc1ccc(-c2c(C#N)c(-c3ccc(C)cc3)n(NS(=O)(=O)c3ccccc3)c(=O)c2C#N)cc1 stands at 48.6 µM (inactive)

Measured GI50, CC1(C)[C@@H]2C[C@H]1C(Cc1ccc(C[C@H]3c4cc(-c5ccccn5)ncc4[C@H]4C[C@@H]3C4(C)C)cc1)c1cc(-c3ccccn3)ncc12 (some centres undefined) : 1.16 µM (inactive)

Parameter requested: GI50. Apply to each item below.
1. CNC(=O)c1cc2nc3ccccc3c(=O)n2c2ccccc12
2. O=C(Cc1ccccc1)NNc1nc(NNC(=O)c2ccncc2)nc(Nc2cccc(Cl)c2)n1

1. > 10 µM (inactive)
2. > 10 µM (inactive)

// for each compound below, give its GI50
1. COC1=C2CC(C)CC(OC)C(OC(=O)CN)[C@H](C)/C=C(\C)C(OC(N)=O)C(OC)/C=C\C=C(/C)C(=O)NC(=CC1=O)C2=O (some centres undefined)
2. CC1=CC2CCC1(C)C/C2=C(/C)OC=O (centres undefined)
3. CC(Oc1ccccc1Cl)C(=O)NN1C(=O)CC(=O)NC1=S (centres undefined)
4. CCCCn1c2c(n(CCCC)c1=[Se])-c1c(n(CCCC)c(=[Se])n1CCCC)S[Se][Se]S2
5. Cn1c(=O)c2[nH]c(Nc3cccc(Cl)c3)nc2n(C)c1=O
6. CCOC(=O)c1cn2c(n1)sc1cc(OC)ccc12

["0.451 µM (active)", "> 100 µM (inactive)", "> 100 µM (inactive)", "25.6 µM (inactive)", "5.6 µM (inactive)", "5.28 µM (inactive)"]

Fill in GI50 for each of the 7 compounds listed.
1. Cc1ccccc1NC(=O)Cc1csc(N/N=C2\C(=O)Nc3ccccc32)n1
2. COc1cc(/C=C2\C[C@H]3[C@@H]4CC=C5C[C@@H](N6CCCC6)CC[C@]5(C)[C@H]4CC[C@]3(C)[C@H]2OC(C)=O)cc(OC)c1OC
3. Cc1nc(C(N)=S)sc1C(=O)CC(=O)C(=O)Nc1c(C(C)C)cccc1C(C)C
4. CCOC(=O)CCC(NC(=O)c1ccc(CNc2nc3ccccc3nc2C(=O)OCC)cc1)C(=O)OCC (centres undefined)
5. CNC(=O)NCCN1N=C(C)/C(=C\c2ccccc2)CC1=O
6. Cc1ccc(/C=N/n2c(-c3ccc(C)cc3)n[nH]c2=O)cc1
7. O=c1c(C(c2ccccc2)c2c(O)oc3cc(O)ccc3c2=O)c(O)oc2cc(O)ccc12

50 µM (inactive)
15.8 µM (inactive)
35.2 µM (inactive)
> 100 µM (inactive)
> 100 µM (inactive)
68.4 µM (inactive)
> 100 µM (inactive)

Items follow; give GI50 for each.
1. CCc1nc(N)nc(N)c1-c1ccc(NC)c([N+](=O)[O-])c1
2. c1ccc2c(c1)ccn2CCc1c[nH]c2ccccc12

1: 0.959 µM (active); 2: > 10 µM (inactive)

====

tested on: U-251; assay: NCI tumour cell line growth inhibition, 48 h
Active and inactive are the calls of the source. Rule as the data show it: active = GI50 up to about 1.1 µM and inactive = higher.
Select the matching outcome among Yes for active, No for inactive

Please let me know the test result on file for c1ccc(SC(CCCCOC2CCCCO2)Sc2ccccc2)cc1 (stereo unspecified) .
No

I would be grateful if you could indicate the recorded call for O=C(O)/C=C/c1nc2ccccc2c(=O)o1 .
No

Tell me the recorded outcome of this test for CC1(C(=O)O)CCC(C(=O)O)C(C)(C)O1 (stereo unspecified) .
No

Name the outcome recorded for Cc1ccc(C(=O)C(Cl)C(Cl)c2ccc(C)cc2)cc1 (stereo unspecified) in the assay.
No

Fill in: this test's call for CCCCn1c2c(n(CCCC)c1=[Se])-c1c(n(CCCC)c(=[Se])n1CCCC)S[Se][Se]S2 is ___
No

What classification did COC1CC2C3/C(=N/Nc4ccc([N+](=O)[O-])cc4[N+](=O)[O-])CCC2(C)C3C1 (stereo unspecified) end up with in this test?
No

Each compound tested received a call. Report the one for NC1CCCCC1.O=P(O)(O)C1(P(=O)(O)O)CC1 .
No

What was the test verdict on NC(=O)CN1C=CCC(C(N)=O)=C1 [CARICOTAMIDE] ?
No

I'd appreciate the recorded outcome for C/C(=C\COc1cc(O)c2c(c1)C(=O)c1cc(C)cc(O)c1C2=O)CCC1OC1(C)C (stereo unspecified) from this test.
No

What is the recorded call for this compound in the test? CCCc1cn2c(/C=N/NC(=N)N)c(-c3ccc([N+](=O)[O-])cc3)nc2s1
Yes

Further cases:
Which outcome did this test record for the compound Oc1cc(/C=C/c2ccccc2)nc2cc3c(cc12)OCO3 ?
No
